// growth lookup, one value per entry
Tested on: NCI-H460 lung
Test: NCI-60 one-dose screen, 48 h (100 = growth as untreated, 0 = no growth, -100 = all killed)
Settings: 10 µM unless noted
This is part of a sample that, as a whole, favours compounds with a hit. Of some 83,000 tested, about 20% had one in any assay. The source made the active and inactive calls. How the source made its calls: active means growth percent below 10; inactive means the rest.

For "COc1c(B(O)O)cc(F)cc1-c1nc2c(F)cc3[nH]ncc3c2c2c1CCCC2" , what is its reported growth?
2.44% (active)

* * *

// growth lookup, one value per entry
Test system: MDA-MB-468 breast
Experiment: NCI-60 one-dose screen, 48 h (100 = growth as untreated, 0 = no growth, -100 = all killed)
Settings: 10 µM unless noted
Protocol: Growth inhibition of the MDA-MB-468 human Breast tumor cell line is measured as a screen for anti-cancer activity. Cells are grown in 96 well plates and exposed to the test compound for 48 hours. Compounds are tested at a single concentration, which is 10^-5 M for most compounds. The reported endpoint is percent growth (GI% or GIPRCNT), where numbers from 0 - 100% represent growth inhibition, and numbers from -100% - 0 represent cell death. […]
Compounds without any hit were thinned out: in the full panel of roughly 83,000, 20% have a hit.
Value expressed in %; do not type the unit.

Compound	growth [%]
O=C1c2cccc3c(N4CCN(Cc5ccccc5)CC4)ccc(c23)C(=O)N1c1cccc(-c2nn(-c3ccccc3)cc2-c2nc3ccccc3s2)c1	95.7
CCOC(=O)c1ccc(NC(=S)NC(=O)c2ccc(NC(=O)C(C)C)cc2OC)cc1	3.97
O=C1CCC(N2C(=O)c3cccc(NCCCCCC(=O)N4CCN(c5ccc6nc7c(nc6c5C(F)(F)F)C(=O)c5ncccc5C7=O)CC4)c3C2=O)C(=O)N1 (centres undefined)	-49.9

Now let's try a different one.
For "NC(=Nc1ccc(OCCCCCCCCn2cnnn2)cc1)c1ccccc1" , what is its reported growth?
20.9

* * *

Tested on: OVCAR-4 ovarian
Experiment: NCI-60 one-dose screen, 48 h
Conditions: 10 µM unless noted
Method: Growth inhibition of the OVCAR-4 human tumor cell line is measured as a screen for anti-cancer activity. Cells are grown in 96 well plates and exposed to the test compound for 48 hours. Compounds are tested at a single concentration, which is 10^-5 M for most compounds. The reported endpoint is percent growth (GI% or GIPRCNT), where numbers from 0 - 100% represent growth inhibition, and numbers from -100% - 0 represent cell death. For example, a value of 40 represents 60% growth inhibition. […]
This is part of a sample that, as a whole, favours compounds with a hit. Of some 83,000 tested, about 20% had one in any assay. The source made the active and inactive calls. Rule for the calls: active = growth percent below 10; inactive = the rest.
Use one of these outcomes when replying: active, inactive

// below: answered compounds
Compound	Discrete Label
COc1cc(C2CC(c3ccc(Cl)cc3)=Nc3c(N)nc(N)nc3N2)ccc1Oc1nc(Nc2ccc(F)cc2)nc(N(C)C)n1 (stereo unspecified)	inactive
NS(=O)(=O)c1ccc(N2N=C(c3ccc(NC(=O)Nc4ccccc4)cc3)CC2c2ccc(Br)cc2)cc1 (stereo unspecified)	active
Cc1nc2sccn2c1-c1nnc(SCc2ccccc2)o1	inactive
COc1cc(/C=C/C(=O)c2cnn(-c3cc(=O)[nH]c4ccc(Br)cc34)c2C)cc(OC)c1OC	inactive
N#CC1=C(c2cccs2)Nc2c(c(-c3ccccc3)nn2-c2ccccc2)C12C(=O)Nc1ccc(Br)cc12 (stereo unspecified)	active
CCCCNc1ccc2c3c(cccc13)C(=O)N(c1cccc(-c3nn(-c4ccccc4)cc3-c3nc4ccccc4s3)c1)C2=O	inactive
COc1ccc(/C=C/C(=O)c2ccc(S(=O)(=O)NCCNc3nc(N(C)C)nc(N4CCOCC4)n3)cc2)cc1	inactive
O=C(NNC(=S)NC(=O)c1ccccc1)c1ccc(OCc2nc3ccc(Cl)cc3[nH]2)cc1	inactive

Field: outcome | Entry: "Cc1nn(-c2ccccc2)c2nc(C)n(CC(=O)N/N=C/c3cccc([N+](=O)[O-])c3)c(=O)c12"
inactive

Entry "O=C(CSc1nnc(-c2ccc(-c3nc4ccccc4[nH]3)cc2)o1)Nc1ccccc1" please
inactive

Entry "COc1cc(CNC(=O)C[C@H](C)CCC=C(C)C)ccc1OCc1cn(-c2ccc(Cl)cc2Cl)nn1" please
inactive

* * *

System: NCI-H322M lung
Assay: NCI-60 one-dose screen, 48 h (100 = growth as untreated, 0 = no growth, -100 = all killed)
Conditions: 10 µM unless noted
Experimental: Growth inhibition of the NCI-H322M human Non-Small Cell Lung tumor cell line is measured as a screen for anti-cancer activity. Cells are grown in 96 well plates and exposed to the test compound for 48 hours. Compounds are tested at a single concentration, which is 10^-5 M for most compounds. The reported endpoint is percent growth (GI% or GIPRCNT), where numbers from 0 - 100% represent growth inhibition, and numbers from -100% - 0 represent cell death. […]
This is part of a sample that, as a whole, favours compounds with a hit. Of some 83,000 tested, about 20% had one in any assay.
// growth lookup, one value per entry
Value expressed in %; do not type the unit.

Example molecules with recorded growth:
Molecule	growth / %
COc1cc(/C=N/NC(=O)c2ccc(OCc3nc4ccc(Cl)cc4[nH]3)cc2)cc(OC)c1OC	55.1
C=CCn1c(O)c(N=Nc2nc(-c3cc4ccccc4oc3=O)cs2)c2ccccc21	101
C#CCN(C)CCCOc1ccc(N(CC)C(=O)c2cc(C(C)C)c(O)cc2O)cc1Cl	23.4
COc1c(B(O)O)cccc1-c1nc2ccc3cn[nH]c3c2c2c1CCCC2	67.7
CC1CCc2c(sc3nc(SCC(=O)c4cccc(Br)c4)n(-c4ccccc4)c(=O)c23)C1 (stereo not given)	74.5
COC(=O)c1c(C(=O)OC)c2c3ccccc3c3ccccc3n2c1C(=O)C(F)(F)F	101

Which measured growth belongs to "COc1ccc(-c2nc3ccc(-c4nnc(SCc5ccccc5)o4)cc3[nH]2)cc1" , tested on NCI-H322M lung?
0.722

Entry "Fc1ccc(N2CC(Cn3c(C(F)(F)F)cc4c(Cl)ncnc43)C2)c(F)c1" please
45.7

Entry "Cc1ccc(-c2cc(-c3ccccc3)[nH]c(=O)c2C#N)cc1" please
91.2

Entry "Cc1ccc(Cl)cc1NC(=O)N/C(N)=N/c1nc2ccccc2s1" please
18.6

* * *

Test system: MALME-3M melanoma
Assay: NCI-60 one-dose screen, 48 h
Conditions: 10 µM unless noted
This is part of a sample that, as a whole, favours compounds with a hit. Of some 83,000 tested, about 20% had one in any assay. Activity calls are given as the source filed them. Rule for the calls: active = growth percent below 10; inactive = the rest.
Use one of these outcomes when replying: active, inactive

// below: answered molecules
Molecule	Discrete Label
COc1cc(/C=C/C(=O)c2cnn(-c3cc(=O)[nH]c4ccc(Br)cc34)c2C)cc(OC)c1OC	active
Cc1ccc(O)cc1Nc1nc(SCCN2CCOCC2)nc2c1cnn2CC(Cl)c1ccc(Br)cc1 (stereo not given)	active
COc1ccc(N=Nc2c(N)nn3c(N)c(C#N)c(-c4ccc(F)cc4)nc23)cc1	inactive
COc1ccc(NC(=O)Cn2c(/C=C/c3ccc([N+](=O)[O-])cc3)nc3ccccc3c2=O)cc1	inactive

Field: outcome | Entry: "NC(=Nc1ccc(OCCCCCCCCn2cnnn2)cc1)c1ccccc1"
inactive

* * *

Tested on: HOP-92 NSCLC
Assay: NCI-60 one-dose screen, 48 h (100 = growth as untreated, 0 = no growth, -100 = all killed)
Conditions: 10 µM unless noted
The panel holds about 83,000 compounds, 20% with a hit somewhere; the sample as a whole holds those more often.
// growth lookup, one value per entry
Value expressed in %; do not type the unit.

Example compounds with recorded growth:
Mol Smiles	growth / %
CNc1nc2ccccc2n2c(-c3ccc(O)c(O)c3)cnc12	13.9
Cc1nc(N)ncc1-c1ccc2ncnc(N3CCc4cc(F)c(Cl)cc43)c2c1	13.6
O=C1Nc2cc(-c3ccc(NS(=O)(=O)c4ccc(F)c(Cl)c4)cc3)ccc2/C1=C/c1ccc[nH]1	37.2

For "COc1cc(CNC(=O)C[C@H](C)CCC=C(C)C)ccc1OCc1cn(-c2ccc(Br)cc2)nn1" , what is its reported growth?
45.9

Entry "OC(c1ccccc1)(c1ccccc1)C1CCN(c2ccc3nnc(Cl)n3n2)CC1" please
19.7

* * *

Tested on: CAKI-1 renal
Assay: NCI-60 one-dose screen, 48 h (100 = growth as untreated, 0 = no growth, -100 = all killed)
Conditions: 10 µM unless noted
The panel holds about 83,000 compounds, 20% with a hit somewhere; the sample as a whole holds those more often.
Measured Property: growth (%)
Value expressed in %; do not type the unit.

Compound	System	growth [%]
NC(=Nc1ccc(OCCCCCCCCn2cnnn2)cc1)c1ccccc1	CAKI-1 renal	35.2

For "c1n[nH]cc1-c1nc2ccc3cn[nH]c3c2c2c1CCCC2" , what is its reported growth?
39.2

Entry "Cc1ccccc1NC(=O)c1cccc(NC(=O)CCl)c1" please
74.5

Entry CN1C(=O)C(O)(CC(=O)c2cc3ccccc3oc2=O)c2ccccc21 (stereo unspecified) please
86.1

Entry "COc1ccc(N=Nc2c(N)nn3c(N)c(C#N)c(-c4ccccc4)nc23)cc1" please
15.9

Entry "CCCSc1nnc(-c2c(C)nc3sccn23)o1" please
79.4
